Listed here are molecules together with their documented IC50.
Molecular target: HLA-C0801 (Homo sapiens, UniProt P10321, A176T/A330V/A97T/C350S/D114A/D138N/D33Y/E201K/E299G/L171W/L218V/M285V/M309V/M331V/P208H/Q277E/Q291P/R59Q/S123Y/S140F/S297R/S48A/T329A/T363A/V319A/V328M)
Experiment: Competitive peptide binding assay, CIR-C0801
Conditions: HMy2.CIR-C0801 cells, reference Cy5-[…], class from inhibition at 5 and 15 μM, flow cytometry MFI; read-out: Binding affinity with HLA-C0801
Peptide text beside a SMILES is read from it.

>>> result("CC[C@H](C)[C@H](NC(=O)[C@@H](NC(=O)[C@H](CC(N)=O)NC(=O)[C@H](CCCNC(=N)N)NC(=O)[C@H](CCCCN)NC(=O)[C@@H](NC(=O)[C@H](Cc1ccc(O)cc1)NC(=O)[C@H](C)NC(=O)[C@@H](N)Cc1ccccc1)[C@@H](C)O)C(C)C)C(=O)O [Epitope M23] (H-FAYTKRNVI-OH; N-terminus and C-terminus assumed)")
"> 15 µM"

Please turn your attention to the following entry.
Task: # query: IC50 of entry CSCC[C@H](NC(=O)[C@H](C)NC(=O)[C@@H]1CCCN1C(=O)[C@H](CC(=O)O)NC(=O)[C@H](C)NC(=O)[C@H](C)NC(=O)[C@H](Cc1ccc(O)cc1)NC(=O)[C@@H](NC(=O)[C@@H](N)CC(C)C)C(C)C)C(=O)O [Epitope M58] (H-LVYAADPAM-OH; N-terminus and C-terminus assumed)
Output: > 15 µM
